Origin of the recorded values: patent US20260216294A1

This listing pairs molecules with measured Emax at 10 µM.
# System: L6-myotubes
# Experiment: Measurement of intracellular cAMP levels in differentiated L6-myotubes (Biological Example 3)
# Assay type: cell-based
# Condition context: 0.25 h, intracellular cAMP in differentiated L6-myotubes; compound at 10 μM, activity relative to isoproterenol at 10 μM

For orientation, consider the following solved cases.
CC12CC(C1)[C@H]([C@H](O)c1cccc(Cl)c1)N2 < 25%
CC(C)(NC[C@H](O)c1cccc(F)c1)[C@H]1CC[C@H](OCc2ccccc2)CC1 < 25%
O[C@H](c1cccc(F)c1)[C@H]1CC[C@H](Cc2ccc(Cl)cc2)N1 < 25%
CC1(C)C[C@H]([C@@H](O)c2ccccc2F)N1 < 25%
COC(=O)[C@H]1CC[C@@H](CCC(C)(C)NC[C@H](O)c2cccc(F)c2)CC1 25 to 50%

Task: Requested field: Emax at 10 µM. Item: "CC(C)(CC[C@H]1CC[C@@H](C(=O)O)CC1)NC[C@H](O)c1cncc(F)c1"
Output: < 25%

Task: For the molecule "CC(C)(C[C@H]1CC[C@@H](C#N)CC1)NC[C@H](O)c1cccc(F)c1" , what Emax at 10 µM is on record?
Output: 25 to 50%

Task: Requested field: Emax at 10 µM. Item: "COC(=O)[C@H]1CC[C@@H](CC(C)(C)NC[C@H](O)c2cncc(F)c2)CC1"
Output: < 25%

Task: Reported Emax at 10 µM for "CS(=O)(=O)N[C@H]1CC[C@H](CNC[C@H](O)c2cccc(F)c2)CC1" : what is it?
Output: < 25%

Task: Form field: reported Emax at 10 µM of "O[C@H](c1cccc(F)c1)C12CCC(COCc3ccc(F)cc3)(CC1)N2"
Output: 25 to 50%

Task: Return reported Emax at 10 µM; argument: "CS(=O)(=O)N[C@H]1CC[C@@H](C[C@@H]2CC[C@H]([C@H](O)c3cccc(F)c3)N2)CC1"
Output: < 25%

Task: Record request: Emax at 10 µM value, item "CC(C)(NC[C@H](O)c1cccc(F)c1)[C@H]1CC[C@H](O)CC1"
Output: < 25%

Task: Would you kindly share the measured Emax at 10 µM for "CC(C)(C[C@H]1CC[C@@H](S(N)(=O)=O)CC1)NC[C@H](O)c1cncc(F)c1" ?
Output: < 25%

Task: Consider the molecule shown here: "CO[C@H]1CC[C@H](C[C@H]2CC[C@H]([C@@H](O)c3ccccc3F)N2)CC1" What is its recorded Emax at 10 µM?
Output: < 25%

Task: Param item = "CC(C)(CC[C@H]1CC[C@H](N)CC1)NC[C@H](O)c1cncc(F)c1" ; retrieve measured Emax at 10 µM.
Output: < 25%

Task: Fill blank: measured Emax at 10 µM of the molecule "COC(=O)[C@H]1CC[C@H](CC(C)(C)NC[C@H](O)c2cncc(F)c2)CC1" is ____.
Output: < 25%
